Sourced from patent US20170182124A1

Target: 3T3-L1 adipocytes (Mus musculus, UniProt P16092+Q99N32)
Sequence (Q99N32 whole entry): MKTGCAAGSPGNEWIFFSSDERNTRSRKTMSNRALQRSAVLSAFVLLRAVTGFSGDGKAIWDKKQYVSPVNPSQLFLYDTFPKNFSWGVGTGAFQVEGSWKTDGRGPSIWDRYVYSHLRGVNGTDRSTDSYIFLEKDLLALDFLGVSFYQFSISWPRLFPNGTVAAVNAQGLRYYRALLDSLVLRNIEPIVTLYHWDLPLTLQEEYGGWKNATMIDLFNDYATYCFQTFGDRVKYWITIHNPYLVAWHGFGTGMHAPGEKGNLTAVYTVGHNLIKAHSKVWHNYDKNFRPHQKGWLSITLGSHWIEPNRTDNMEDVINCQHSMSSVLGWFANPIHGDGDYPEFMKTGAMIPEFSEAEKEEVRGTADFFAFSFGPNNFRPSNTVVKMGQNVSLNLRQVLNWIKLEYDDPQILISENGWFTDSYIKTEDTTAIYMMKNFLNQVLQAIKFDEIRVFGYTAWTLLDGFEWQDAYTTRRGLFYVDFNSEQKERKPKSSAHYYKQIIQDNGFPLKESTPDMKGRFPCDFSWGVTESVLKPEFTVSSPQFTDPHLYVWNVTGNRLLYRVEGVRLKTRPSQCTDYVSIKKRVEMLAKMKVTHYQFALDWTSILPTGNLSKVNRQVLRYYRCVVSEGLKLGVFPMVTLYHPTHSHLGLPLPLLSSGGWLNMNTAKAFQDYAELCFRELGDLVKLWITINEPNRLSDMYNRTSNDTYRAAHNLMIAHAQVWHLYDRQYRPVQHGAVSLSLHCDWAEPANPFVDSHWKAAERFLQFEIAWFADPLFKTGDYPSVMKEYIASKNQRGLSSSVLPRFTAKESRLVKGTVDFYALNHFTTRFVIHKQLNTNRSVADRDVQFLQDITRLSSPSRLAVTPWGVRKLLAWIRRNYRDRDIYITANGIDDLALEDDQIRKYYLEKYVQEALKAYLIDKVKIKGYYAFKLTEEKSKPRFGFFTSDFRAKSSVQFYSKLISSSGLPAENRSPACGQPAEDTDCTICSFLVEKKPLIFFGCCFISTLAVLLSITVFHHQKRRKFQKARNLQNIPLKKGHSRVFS
Sequence (P16092 22-822): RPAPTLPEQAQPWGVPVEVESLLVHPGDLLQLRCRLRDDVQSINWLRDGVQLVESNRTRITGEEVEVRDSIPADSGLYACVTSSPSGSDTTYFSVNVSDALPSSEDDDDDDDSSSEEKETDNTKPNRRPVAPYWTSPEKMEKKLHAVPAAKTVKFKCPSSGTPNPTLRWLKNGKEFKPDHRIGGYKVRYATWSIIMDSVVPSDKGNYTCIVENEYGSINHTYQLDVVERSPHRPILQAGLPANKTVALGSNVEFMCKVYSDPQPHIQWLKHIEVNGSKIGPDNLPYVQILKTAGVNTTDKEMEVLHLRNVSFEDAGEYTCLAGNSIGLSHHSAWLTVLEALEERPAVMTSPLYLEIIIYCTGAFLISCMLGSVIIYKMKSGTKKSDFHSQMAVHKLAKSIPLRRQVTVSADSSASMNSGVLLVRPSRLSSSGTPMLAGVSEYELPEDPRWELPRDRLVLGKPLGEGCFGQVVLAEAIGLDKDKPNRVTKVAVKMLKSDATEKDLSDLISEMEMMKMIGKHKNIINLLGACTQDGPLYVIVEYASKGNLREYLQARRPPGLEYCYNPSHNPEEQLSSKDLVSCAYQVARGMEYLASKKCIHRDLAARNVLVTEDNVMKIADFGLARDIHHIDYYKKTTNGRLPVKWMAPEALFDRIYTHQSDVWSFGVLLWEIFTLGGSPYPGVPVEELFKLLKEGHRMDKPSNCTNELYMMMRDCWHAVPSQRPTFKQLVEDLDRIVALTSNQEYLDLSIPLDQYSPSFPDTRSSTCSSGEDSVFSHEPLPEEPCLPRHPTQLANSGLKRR
Assay: Glucose uptake in 3T3-L1 adipocytes
Assay type: cell-based
Conditions: stimulated 20 hours, 3H-deoxy-glucose
Recorded Glucose uptake Emax for the following molecules

MOLECULE	DISPLAY_UNIT	Glucose uptake Emax
S{Beta-181}-[2-[2-[[2-[2-[2-[[2-[2-[2-[[(4S)-4-carboxy-4-(17-carboxyheptadecanoyl-amino)butanoyl]amino]ethoxy]ethoxy]acetyl]amino]ethoxy]ethoxy]acetyl]amino]-ethylamino]-2-oxoethyl]-Ala[Gln121,Leu168, … (protein) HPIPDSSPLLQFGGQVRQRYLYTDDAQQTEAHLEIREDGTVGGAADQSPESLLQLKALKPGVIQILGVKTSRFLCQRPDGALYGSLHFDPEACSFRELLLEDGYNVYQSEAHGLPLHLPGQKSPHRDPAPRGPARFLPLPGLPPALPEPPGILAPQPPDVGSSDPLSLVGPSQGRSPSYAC	%	73
S{Beta-180}-2-aminoethylsulfanyl-Ala[Gln121, Leu168, Cys180, des181]FGF21 (protein, N-terminal Ala; cysteamine disulfide on Cys180) AHPIPDSSPLLQFGGQVRQRYLYTDDAQQTEAHLEIREDGTVGGAADQSPESLLQLKALKPGVIQILGVKTSRFLCQRPDGALYGSLHFDPEACSFRELLLEDGYNVYQSEAHGLPLHLPGQKSPHRDPAPRGPARFLPLPGLPPALPEPPGILAPQPPDVGSSDPLSLVGPSQGRSPSYC	%	72
S{Beta-180}-[2-[2-[[2-[2-[2-[[2-[2-[2-[[(4S)-4-carboxy-4-(19-carboxynonadecanoyl-amino)butanoyl]amino]ethoxy]ethoxy]acetyl]amino]ethoxy]ethoxy]acetyl]amino]-ethylamino]-2-oxoethyl]-Ala[Gln121,Leu168,C … (protein) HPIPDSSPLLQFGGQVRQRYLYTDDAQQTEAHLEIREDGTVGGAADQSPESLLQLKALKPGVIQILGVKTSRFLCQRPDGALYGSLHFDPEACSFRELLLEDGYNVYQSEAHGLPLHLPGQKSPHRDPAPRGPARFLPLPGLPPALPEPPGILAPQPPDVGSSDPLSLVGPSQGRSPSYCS	%	53
